# System: M19-MEL
# protocolDescription: NCI tumour cell line growth inhibition, 48 h
Active and inactive are the calls of the source. No stated cut-off is given here; in the data, active = GI50 up to about 1.1 µM and inactive = higher.
Consider the following compounds; for each one, report its GI50.

Record CN(C)C(=C1C(Br)=C(Br)C(Br)=C1Br)N(C)C , field GI50: > 100 µM (inactive)

Record CC(=O)OC1COC(n2c(=S)n(-c3ccccc3)c(=O)c3cc(Br)ccc32)C(OC(C)=O)C1OC(C)=O (centres undefined) , field GI50: 53.6 µM (inactive)

Record CC1CN(C(=O)CN2CCC(CCCCN(C)C)CC2)c2ccccc2NC1=O (centres undefined) , field GI50: > 100 µM (inactive)

Record O=C(O)C1Cc2[nH]c3ccccc3c2C2CCCC12 (centres undefined) , field GI50: > 100 µM (inactive)

Record C/C(=N\N(C)C)C(CN1CCCCC1)C(c1ccccc1)c1c(O)c2ccccc2oc1=O (centres undefined) , field GI50: > 100 µM (inactive)

Record COc1cccc(-c2nccc3c(OCc4ccccc4)c(OC)c(OC)cc23)c1 , field GI50: > 100 µM (inactive)

Record COc1cc2ccc3c4c(OC)cc(OC)c(OC)c4c([O-])[n+](C)c3c2cc1OC , field GI50: 6.46 µM (inactive)

Record CCOC(=O)c1ncoc1[C@H]1COC(C)(C)O1 , field GI50: > 100 µM (inactive)

Record CC1=C(C(=O)Nc2ccc([N+](=O)[O-])cc2)C(c2cccc([N+](=O)[O-])c2)C(C(=O)Nc2ccc([N+](=O)[O-])cc2)=C(C)N1 , field GI50: 23 µM (inactive)
